# STUDY_SYSTEM: CB1 cannabinoid receptor (Rattus norvegicus, UniProt P20272)
# Construct: membranes were prepared from rat forebrain membranes; from tissue; host or cells: rat forebrain
# Sequence (P20272 whole entry): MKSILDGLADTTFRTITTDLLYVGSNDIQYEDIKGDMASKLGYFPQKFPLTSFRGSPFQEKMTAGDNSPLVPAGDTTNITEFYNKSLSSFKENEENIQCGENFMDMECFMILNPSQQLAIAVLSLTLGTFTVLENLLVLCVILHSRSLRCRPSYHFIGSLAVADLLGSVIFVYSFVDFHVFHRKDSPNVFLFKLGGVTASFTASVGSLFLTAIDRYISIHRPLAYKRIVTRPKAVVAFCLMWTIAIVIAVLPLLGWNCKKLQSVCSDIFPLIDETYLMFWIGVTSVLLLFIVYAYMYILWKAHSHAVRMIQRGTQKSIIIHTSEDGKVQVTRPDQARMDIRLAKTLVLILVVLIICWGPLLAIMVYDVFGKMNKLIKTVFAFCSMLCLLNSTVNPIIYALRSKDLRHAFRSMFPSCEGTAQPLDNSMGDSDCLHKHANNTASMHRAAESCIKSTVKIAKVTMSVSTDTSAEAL
# TEST_NAME: CB1 receptor binding, [3H]CP-55,940 displacement
# STATED_CONDITIONS: with PMSF (second value of cell); rat forebrain membranes; read-out: Ki CB1 (nM) (o/w PMSF)
# Experimental: Some inventive analogs were tested for CB2 receptor binding affinity and for CB1 receptor affinity (to determine selectivity). […] The lower the Ki value, the higher the binding affinity. […] The treated membranes were subsequently used in the binding assay described below. […] Radioactivity was detected using MicroScint 20 scintillation cocktail added directly to the dried filterplates, and the filterplates were counted using a Packard Instruments Top-Count. […]
Known log10(Ki) of a selection of molecules
Transform log10 | Measure Ki | Unit nM

Guide cases for log10(Ki), answers given:
CC/C=C\C/C=C\C/C=C\CCCCCCCCOC(=O)NC[C@H](C)O | 2.68
CCCCCCCCC=CCCCCCCCCOC(=O)NCC(C)O (stereo not drawn) | 3.35
CCCCC/C=C\C/C=C\CCCCCCCCOC(=O)NC[C@H](C)O | 2.61
CCCCC/C=C\C/C=C\C/C=C\C/C=C\CCCCNC(=O)NC[C@H](C)O | 2.10
CCCCCC=CCC=CCC=CCC=CCCCCOC(=O)NCC(C)O (stereo not drawn) [Compound B4] | 2.51

Q) Could you tell me which log10(Ki) is on file for CCCCC/C=C\C/C=C\C/C=C\C/C=C\CCCCOC(=O)Nc1cccnc1 ?
A) 1.98

Q) For CCCCC/C=C\C/C=C\C/C=C\C/C=C\CCCCOC(=O)NC1CCCCC1 then?
A) 3.17

Q) For CCCCC/C=C\C/C=C\C/C=C\C/C=C\CCCCNC(=O)OC[C@H](C)O then?
A) 2.84

Q) For CCCCC/C=C\C/C=C\C/C=C\C/C=C\CCCCOC(=O)NC1CCC1 then?
A) 3.00

* * *

# System: anandamide transporter
# TEST_NAME: [3H]Anandamide transporter competition assay
# Type: cell-based
# STATED_CONDITIONS: human CCF-STG1 astrocytoma cells, 10 nM [3H]anandamide; read-out: IC50 (AT inhib.)
MEASUREMENT_LABEL: log10(IC50) (log10 of the value in µM)
Transform log10 | Measure IC50 | Unit µM

CCCCCC=CCC=CCC=CCC=CCCCCOC(=O)NCC(C)O (stereo not shown) [Compound B4] | -0.40
CCCCC/C=C\C/C=C\C/C=C\C/C=C\CCCCNC(=O)OC[C@H](C)O | 0.52
CC/C=C\C/C=C\C/C=C\CCCCCCCCOC(=O)NC[C@H](C)O | 0.65

Q) Could you tell me which log10(IC50) is on file for CCCCC/C=C\C/C=C\C/C=C\C/C=C\CCCCNC(=O)NC[C@H](C)O ?
A) 0.25

Q) For CCCCC/C=C\C/C=C\C/C=C\C/C=C\CCCCOC(=O)NC1=NCCS1 then?
A) 0.93

Q) For CCCCC/C=C\C/C=C\C/C=C\C/C=C\CCCCOC(=O)NC1CCC1 then?
A) 1.19

Q) For CCCCC/C=C\C/C=C\C/C=C\C/C=C\CCCCOC(=O)Nc1ccc(O)cc1 then?
A) 0.82
